Experimental Protocol: Toxicity in adult L4/juvenile L1 stages of Caenorhabditis elegans N2 assessed as survival at 64 ug/ml incubated for 96 hrs measured every 12 hrs
Assay type: organism-based
Experimental Context: in vivo
Property: survival at 96 h, 64 ug/ml (%)
Respond with the bare value in %.

Report survival at 96 h, 64 ug/ml for Cl.Cl.S=C(NCCCNCCCCCNCCCNC(=S)NCC(c1ccccc1)c1ccccc1)NCC(c1ccccc1)c1ccccc1 100

====

Experimental Protocol: Cytotoxicity against HEK293T/17 cells after 48 hrs by MTS conversion assay
Format: cell-based, HEK-293T
Experimental Context: human
Property: CC50 at 48 h (µg/mL)
Respond with the bare value in µg/mL.

Report CC50 at 48 h for Cl.Cl.S=C(NCCCNCCCCCNCCCNC(=S)NCC(c1ccccc1)c1ccccc1)NCC(c1ccccc1)c1ccccc1 32

Data credit: ChEMBL document CHEMBL3804769
